system: Staphylococcus epidermidis; test: Tested in vitro for inhibitory activity against gram positive bacteria Staphylococcus epidermidis HCF berset C strain; type: functional
Output Satisfied for records whose MIC is lower than 8 µg/mL, Not satisfied for records at or above 8 µg/mL.

{"columns": ["compound", "assigned-label"],
 "data": [
  ["Nc1cc2c(=O)c(C(=O)O)cn(C3CC3)c2cc1N1CCCC1", "Not satisfied"],
  ["CC(C)(C)n1cc(C(=O)O)c(=O)c2cc(N)c(N3CCSCC3)cc21", "Satisfied"],
  ["Nc1cc2c(=O)c(C(=O)O)cn(C3CC3)c2cc1Cl", "Not satisfied"],
  ["CC(C)(C)n1cc(C(=O)O)c(=O)c2cc(N)c(N3CCc4ccccc43)cc21", "Satisfied"],
  ["O=C(O)c1cn(C2CC2)c2cc(N3CCNCC3)c(F)cc2c1=O", "Satisfied"],
  ["N#CCN1CCN(c2cc3c(cc2N)c(=O)c(C(=O)O)cn3C2CC2)CC1", "Not satisfied"],
  ["Nc1cc2c(=O)c(C(=O)O)cn(C3CC3)c2cc1N1CCC(N)C1 (centres undefined)", "Not satisfied"],
  ["Nc1cc2c(=O)c(C(=O)O)cn(C3CC3)c2cc1N1CCC(O)CC1", "Satisfied"],
  ["CC1CN(c2cc3c(cc2N)c(=O)c(C(=O)O)cn3C2CC2)CCN1 (centres undefined)", "Satisfied"],
  ["NCCN1CCN(c2cc3c(cc2N)c(=O)c(C(=O)O)cn3C2CC2)CC1", "Not satisfied"],
  ["CN1CCN(c2cc3c(cc2N)c(=O)c(C(=O)O)cn3C(C)(C)C)CC1", "Satisfied"],
  ["O=C(O)c1cn(C2CC2)c2c(F)c(N3CCSCC3)c(F)cc2c1=O", "Satisfied"],
  ["Nc1cc2c(=O)c(C(=O)O)cn(C3CC3)c2cc1N1CCSC1", "Not satisfied"],
  ["CN1CCN(c2nc3c(cc2N)c(=O)c(C(=O)O)cn3C2CC2)CC1", "Satisfied"],
  ["Nc1cc2c(=O)c(C(=O)O)cn(C3CC3)c2cc1N1CCNCC1", "Not satisfied"],
  ["CN1CCN(c2cc3c(c(N)c2N)c(=O)c(C(=O)O)cn3C2CC2)CC1", "Not satisfied"],
  ["CC(C)(C)n1cc(C(=O)O)c(=O)c2cc(N)c(N3CCc4ccccc4C3)cc21", "Satisfied"],
  ["CC(C)(C)n1cc(C(=O)O)c(=O)c2cc(N)c(N3CCN(c4ccccn4)CC3)cc21", "Satisfied"],
  ["NCCSc1cc2c(cc1N)c(=O)c(C(=O)O)cn2C1CC1", "Not satisfied"],
  ["Nc1cc2c(=O)c(C(=O)O)cn(C3CC3)c2c(F)c1N1CCSCC1", "Satisfied"],
  ["CN1CCN(c2c(F)c(N)c3c(=O)c(C(=O)O)cn(C4CC4)c3c2F)CC1", "Satisfied"]
]}

====

Listing of recorded MIC by entry.
test system: Staphylococcus epidermidis; assay: Tested in vitro for inhibitory activity against gram positive bacteria Staphylococcus epidermidis HCF berset C strain; type: functional

{"columns": ["smiles-text", "measured-target", "MIC, µg/mL"],
 "data": [
  ["CN1CCN(c2c(N)cc3c(=O)c(C(=O)O)cn(C4CC4)c3c2F)CC1", "Staphylococcus epidermidis", 8],
  ["CN1CCN(c2cc3c(cc2N)c(=O)c(C(=O)O)cn3-c2ccc(F)cc2)CC1", "Staphylococcus epidermidis", 8],
  ["CC(C)(C)n1cc(C(=O)O)c(=O)c2cc(N)c(N3CCCC3)cc21", "Staphylococcus epidermidis", 8]
]}
